Entry source: the Human Domainome abundance scans (Beltran et al. 2025)

B1: Cytoplasmic polyadenylation element-binding protein 2, residues 513 to 575; numbered along this chain, Q7Z5Q1 (parent)
chain: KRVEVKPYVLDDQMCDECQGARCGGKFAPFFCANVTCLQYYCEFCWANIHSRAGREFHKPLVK

- Variants of: B1
- method_description: abundance fitness (aPCA) (normalised: wild type 0, dead -1); higher = more abundant; growth selection in yeast, the domain comes from the species named
- particulars: Homo sapiens
Class 1.0: abundance fitness at least -0.5. Class 0.0: abundance fitness below -0.5.

Reference set (5 entries):
Y40M
1.0
F27W
1.0
W46K
0.0
V3T
1.0
F30P
0.0

Determine whether measured abundance fitness meets or exceeds -0.5 for H50P
0.0

Say whether D11W shows abundance fitness of -0.5 or more.
1.0

Reported abundance fitness at or above -0.5? Y41S
0.0

Say whether W46Y shows abundance fitness of -0.5 or more.
1.0

Identify whether the reported abundance fitness of the following variant is -0.5 or greater: M14D
1.0

Decide: abundance fitness of R22D >= -0.5?
1.0

Please tell me: is the variant R55M at or over -0.5 in terms of abundance fitness?
1.0

Check the entry R55D : does abundance fitness equal or exceed -0.5?
1.0
